Molecular target: Phosphatidylinositol 4,5-bisphosphate 3-kinase catalytic subunit delta isoform (Homo sapiens)
Sequence (O00329 whole entry): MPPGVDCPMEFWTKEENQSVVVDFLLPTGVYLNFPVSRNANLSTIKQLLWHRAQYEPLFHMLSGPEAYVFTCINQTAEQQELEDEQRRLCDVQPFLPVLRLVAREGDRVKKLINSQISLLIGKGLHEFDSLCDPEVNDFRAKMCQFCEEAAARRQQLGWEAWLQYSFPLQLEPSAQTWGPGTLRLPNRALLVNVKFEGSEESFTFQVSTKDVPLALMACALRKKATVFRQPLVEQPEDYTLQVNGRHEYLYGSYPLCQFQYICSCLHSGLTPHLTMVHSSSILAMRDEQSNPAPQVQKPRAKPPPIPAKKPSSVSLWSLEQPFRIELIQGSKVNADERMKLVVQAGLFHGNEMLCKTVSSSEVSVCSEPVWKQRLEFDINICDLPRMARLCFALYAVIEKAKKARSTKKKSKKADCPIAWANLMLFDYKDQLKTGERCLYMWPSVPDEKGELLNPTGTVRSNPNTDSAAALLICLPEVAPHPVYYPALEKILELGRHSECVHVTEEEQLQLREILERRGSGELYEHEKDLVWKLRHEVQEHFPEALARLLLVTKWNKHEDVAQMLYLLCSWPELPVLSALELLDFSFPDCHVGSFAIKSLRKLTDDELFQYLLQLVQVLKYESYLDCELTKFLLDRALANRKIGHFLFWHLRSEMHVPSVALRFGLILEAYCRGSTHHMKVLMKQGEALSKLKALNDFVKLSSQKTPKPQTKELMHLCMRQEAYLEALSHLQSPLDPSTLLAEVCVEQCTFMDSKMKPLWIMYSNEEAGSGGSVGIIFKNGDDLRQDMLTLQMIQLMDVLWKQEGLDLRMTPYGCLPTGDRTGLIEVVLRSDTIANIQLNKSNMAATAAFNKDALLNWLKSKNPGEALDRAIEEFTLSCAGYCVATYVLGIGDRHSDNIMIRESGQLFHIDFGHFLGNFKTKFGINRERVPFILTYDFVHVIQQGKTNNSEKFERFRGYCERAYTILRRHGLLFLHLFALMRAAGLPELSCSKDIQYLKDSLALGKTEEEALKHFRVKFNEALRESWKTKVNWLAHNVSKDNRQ
Experiment: Inhibition of PI3K-delta (unknown origin) by cell free biochemical assay
Outcome Measure: pIC50
Scale note: pIC50 = -log10(concentration in M).

COc1ccc(-c2cn(Cc3nc4cccc(C)c4c(=O)n3-c3ccccc3C)nn2)c(C)c1	5.00

Okay, now this molecule:
// field: pIC50; key: Cc1ccccc1-n1c(Cn2cc(-c3ccccc3)nn2)nc2cccc(C)c2c1=O ; value = 5.30
